The next entries give measured IC50 for VEGFR2 (Homo sapiens (Human)).
recorded-endpoint: IC50

>>> obs_value("Cn1cc(-c2cc(Oc3ccc(NC(=O)Nc4ccc(Cl)c(C(F)(F)F)c4)cc3)ccn2)cn1")
"188 nM"
>>> obs_value("Cn1cc(-c2cc(Oc3ccc(NC(=O)Nc4ccc(Cl)c(C(F)(F)F)c4)cc3)c(Cl)cn2)cn1 [Comparative example 4, reference compound]")
"20500 nM"
>>> obs_value("Cn1cc(-c2nccc(Oc3ccc(NC(=O)Nc4ccc(Cl)c(C(F)(F)F)c4)cc3)c2N)cn1")
"215 nM"
>>> obs_value("COc1c(Oc2ccc(NC(=O)Nc3ccc(Cl)c(C(F)(F)F)c3)cc2)ccnc1-c1cnn(C)c1")
"417 nM"

Entry source: patent US9902709B2
